Reference for the values: patent US20200347144A1

Target: T1, mouse 4-1BB protein (extracellular domain) (mouse, UniProt P20334 24-187)
T1 construct: extracellular domain; also called mouse 4-1BB-his; mouse 4-1BB-hFc protein
T1 sequence (looked up): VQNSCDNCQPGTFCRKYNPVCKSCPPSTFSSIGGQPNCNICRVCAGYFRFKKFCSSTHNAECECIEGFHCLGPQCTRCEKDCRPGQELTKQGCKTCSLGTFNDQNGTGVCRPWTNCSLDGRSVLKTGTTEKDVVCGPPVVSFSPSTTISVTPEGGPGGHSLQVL
Assay: ELISA, coated mouse 4-1BB; Ab 10 ug/ml

{"columns": ["binder", "OD450 nm [OD450 nm]"],
 "data": [
  ["57B3D10 (antibody, V domains shown, also called 4-1BB fully human antibody 57B3D10) VH: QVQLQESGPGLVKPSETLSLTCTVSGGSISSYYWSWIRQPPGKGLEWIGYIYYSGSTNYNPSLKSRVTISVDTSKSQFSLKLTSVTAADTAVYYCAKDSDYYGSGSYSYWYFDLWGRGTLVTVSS VL: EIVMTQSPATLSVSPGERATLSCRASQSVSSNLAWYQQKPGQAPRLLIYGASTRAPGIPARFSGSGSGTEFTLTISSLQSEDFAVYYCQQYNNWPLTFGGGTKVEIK", 0.24],
  ["170D7F2 (antibody, V domains shown) VH: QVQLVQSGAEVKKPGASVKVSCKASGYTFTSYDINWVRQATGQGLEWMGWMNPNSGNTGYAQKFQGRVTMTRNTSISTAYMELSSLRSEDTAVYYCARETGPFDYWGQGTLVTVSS VL: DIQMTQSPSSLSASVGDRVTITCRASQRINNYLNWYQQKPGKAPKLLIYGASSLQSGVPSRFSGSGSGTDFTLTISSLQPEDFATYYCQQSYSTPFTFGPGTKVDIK", 0.27],
  ["118F3A2 (antibody, V domains shown) VH: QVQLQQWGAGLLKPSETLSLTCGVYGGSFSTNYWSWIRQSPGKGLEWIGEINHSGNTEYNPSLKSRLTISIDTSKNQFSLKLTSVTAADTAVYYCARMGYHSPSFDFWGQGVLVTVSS VL: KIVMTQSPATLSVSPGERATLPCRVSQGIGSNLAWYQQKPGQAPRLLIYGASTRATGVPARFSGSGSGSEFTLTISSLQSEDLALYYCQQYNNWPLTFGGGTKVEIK", 0.31],
  ["113F6C6 (antibody, V domains shown, also called 4-1BB fully human antibody 113F6C6; 113F6F6) VH: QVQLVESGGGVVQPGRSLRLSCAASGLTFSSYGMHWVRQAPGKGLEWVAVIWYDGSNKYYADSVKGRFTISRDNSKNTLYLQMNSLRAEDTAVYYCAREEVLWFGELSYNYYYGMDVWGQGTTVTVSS VL: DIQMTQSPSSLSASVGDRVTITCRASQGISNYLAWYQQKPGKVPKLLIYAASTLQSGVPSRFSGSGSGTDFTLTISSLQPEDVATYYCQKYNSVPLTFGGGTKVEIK", 0.25]
]}
